- tgt: Focal adhesion kinase 1 (Homo sapiens) (UniProt Q05397)
- Sequence (Q05397 whole entry, looked up): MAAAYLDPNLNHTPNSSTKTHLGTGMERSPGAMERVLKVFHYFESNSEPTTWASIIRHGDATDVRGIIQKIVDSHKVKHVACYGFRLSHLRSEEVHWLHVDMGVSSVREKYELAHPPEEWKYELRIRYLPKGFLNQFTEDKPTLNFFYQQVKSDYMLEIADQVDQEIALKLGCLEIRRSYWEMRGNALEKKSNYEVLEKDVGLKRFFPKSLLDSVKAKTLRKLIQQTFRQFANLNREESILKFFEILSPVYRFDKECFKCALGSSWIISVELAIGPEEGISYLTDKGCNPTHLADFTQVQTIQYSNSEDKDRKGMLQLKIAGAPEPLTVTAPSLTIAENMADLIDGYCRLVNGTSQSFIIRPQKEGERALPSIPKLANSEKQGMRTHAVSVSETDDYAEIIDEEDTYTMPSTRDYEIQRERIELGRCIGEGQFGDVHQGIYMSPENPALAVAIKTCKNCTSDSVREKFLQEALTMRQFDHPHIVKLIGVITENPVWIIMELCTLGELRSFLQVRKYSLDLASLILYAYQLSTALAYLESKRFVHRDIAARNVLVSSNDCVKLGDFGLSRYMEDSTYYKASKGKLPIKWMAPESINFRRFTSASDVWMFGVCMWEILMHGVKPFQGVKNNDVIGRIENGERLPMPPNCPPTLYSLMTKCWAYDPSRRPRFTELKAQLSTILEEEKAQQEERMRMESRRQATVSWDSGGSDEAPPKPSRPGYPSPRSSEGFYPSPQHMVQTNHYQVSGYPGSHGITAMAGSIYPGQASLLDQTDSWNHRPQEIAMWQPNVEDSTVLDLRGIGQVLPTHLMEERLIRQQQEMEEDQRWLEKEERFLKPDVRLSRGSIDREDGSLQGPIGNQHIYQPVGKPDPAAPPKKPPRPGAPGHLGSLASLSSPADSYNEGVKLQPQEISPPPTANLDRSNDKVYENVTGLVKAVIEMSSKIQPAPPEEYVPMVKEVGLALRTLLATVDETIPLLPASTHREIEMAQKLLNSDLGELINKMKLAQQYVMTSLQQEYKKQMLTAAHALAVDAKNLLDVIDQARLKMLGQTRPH
- test-name: small-molecule microarray binders of FAK, primary screen, biochemical, 635/667 nm fluorescence, BSA, DTT (AID 1130);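 further: composite of spot emission at 667 nm and signal to noise over triplicate slides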
- cond: PTK2 binding, 635 nm fluorescence, higher = more signal
Classification field: T = composite z-score at or over 0.4; F = composite z-score under 0.4.

INSERT INTO assay_data (molecule, assigned_category) VALUES
  ('C=C[C@H](COC(C)=O)NS(=O)(=O)c1ccc(Br)cc1', 'F'),
  ('COc1ccc(C(O)C2C=CC3C(=O)N(Cc4ccccc4)C(=O)C3N2n2cnnc2)c2ccccc12 (configuration not stated)', 'T'),
  ('C=CC1c2cc(O)c(OC)cc2CCN1Cc1sc2ccccc2c1Cl (configuration not stated)', 'F'),
  ('C[n+]1ccc(CCCO)cc1', 'F'),
  ('CN(C)C(=O)[C@@]1(Cc2ccccc2N=[N+]=[N-])COC(c2ccc(OCCCO)cc2)=N1', 'T'),
  ('CCOC(=O)C[C@H]1[C@H](OC(=O)c2ccccc2-c2ccccc2)[C@@H](NC(=O)c2ccc3ccccc3n2)c2cc(OCCCO)ccc2N1C(=O)c1ccc2ccccc2n1', 'F'),
  ('C=CCC(OC(C)=O)[C@@H]1[C@@H](N(Cc2cc3ccccc3o2)C(=O)Cc2ccc(F)cc2)c2cc(OCCCO)ccc2N1C(=O)c1ccc2ccccc2n1 (some centres not stated)', 'F'),
  ('C[C@H]1ON(c2ccc(C(=O)OC(C)(C)C)cc2)[C@@H](c2ccc(O)cc2)[C@@H]1C(=O)N1C(=O)OC[C@@H]1c1ccccc1', 'T'),
  ('COc1cc2c(cc1OC)CN(C(=O)[C@@H]1[C@H]3C(=O)O[C@H](c4ccccc4)[C@H](c4ccccc4)N3[C@H](c3ccccc3OCCO)[C@@]13C(=O)Nc1ccc(C#CC4(O)CCCCCC4)cc13)CC2', 'F'),
  ('COCC(=C=CC[C@H](O)c1ccc(OCCO)cc1)C[C@H](O)COCc1ccccc1', 'T');

In: Given the entry `CC(C)NC(=O)[C@@]1(C)c2ccccc2C(=O)N(C(C)C)[C@H]1c1ccc(CO)cc1` , answer whether its composite z-score meets or surpasses 0.4.
Out: F

###

Please respond with reported composite z-score for every item in the list.
- System: Human papillomavirus type 1a protein E7 (residues 44-93)
- test-name: HPV1a E7 fragment binders on microarrays, primary screen, biochemical, small-molecule microarray, residues 44-93, 635 nm fluorescence (AID 1108);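 further: E7 fragment applied at 1 µg/mL in TBST for 1 h at 4 C; score combines spot fluorescence with its signal to noise ratio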
- cond: small-molecule microarray binding, fluorescence 635 nm; higher = more signal
Numbers only.

INSERT INTO measurements (compound, tgt, observed_value) VALUES
  ('COCCCNC(=O)[C@@]1(Sc2ccc(C)cc2)CC(=O)N(Cc2cc(C(F)(F)F)cc(C(F)(F)F)c2)[C@@H]1c1ccc(CO)cc1', 'Human papillomavirus type 1a protein E7 (residues 44-93)', 1.07),
  ('CC(C)(C)OC(=O)CC[C@]1(C(=O)N2CCOCC2)N=C(c2ccc(OCCCO)cc2)O[C@H]1c1ccccc1', 'Human papillomavirus type 1a protein E7 (residues 44-93)', 0.79),
  ('CC(C)(C)OC(=O)CC[C@]1(C(=O)O)N=C(c2ccc(OCCCO)cc2)O[C@H]1c1ccccc1CN=[N+]=[N-]', 'Human papillomavirus type 1a protein E7 (residues 44-93)', -0.391);

Value sought for every listed compound: composite z-score.
1. COc1cc2c(cc1OC)CN(C(=O)[C@H]1[C@@H]3C(=O)O[C@@H](c4ccccc4)[C@@H](c4ccccc4)N3[C@@H](c3ccc(OCCO)cc3)[C@]13C(=O)Nc1ccc(C#CC4(O)CCCCCC4)cc13)CC2
2. COCCOC(=O)N1C(=O)[C@@]2(c3cc(C#CC4=CCCCC4)ccc31)[C@H](c1ccccc1OCCO)N1[C@H](c3ccccc3)[C@H](c3ccccc3)OC(=O)[C@H]1[C@@H]2C(=O)N1CCc2cc(OC)c(OC)cc2C1
3. CN1C(=O)C2C(C1=O)C1C=C(c3ccc(CO)cc3)C2C(c2cccs2)N1Cc1cccc(OC(F)(F)F)c1 (stereo unspecified)

Out:
[1.43, 1.33, 1.4]
